Would you kindly list EC50 at 72 h for each of these molecules?
- protocol_summary: HepG2 cytotoxicity bioluminescence assay (CellTiterGlo, ATP)
- Assay type: cell-based, human
- conditions_used: human, uninfected HepG2-CD81 cells; uninfected HepG2, ATP bioluminescence
One number for each entry, in µM.

C[C@H]1[C@H](N2CCN(C(=O)Nc3ccc(F)cc3)CC2)O[C@@H]2O[C@@]3(C)CC[C@H]4[C@H](C)CC[C@@H]1[C@@]24OO3	5.16
C[C@H]1[C@H](N2CCN(C(=O)c3ccc(C(F)(F)F)cc3)CC2)O[C@@H]2O[C@@]3(C)CC[C@H]4[C@H](C)CC[C@@H]1[C@@]24OO3	7.02

// switching to the query molecule
Param item = `C[C@H]1[C@H](N2CCN(C(=O)Nc3ccc(C(F)(F)F)cc3)CC2)O[C@@H]2O[C@@]3(C)CC[C@H]4[C@H](C)CC[C@@H]1[C@@]24OO3` ; retrieve measured EC50 at 72 h.
5.45

====

- Test system: P. falciparum NF54 late stage gametocytes (>90% stage IV and V)
- protocol_summary: Gametocytocidal luciferase reporter assay, late stage, 72 h
- Assay type: cell-based, Plasmodium falciparum
- conditions_used: read-out: Late Stage (LG, Luc 72 h) IC50; >90% stage IV and V gametocytes, ±SEM
I'd appreciate it if you could supply IC50 values for the items below.
Give bare numbers, in nM.

C[C@H]1[C@H](N2CCN(S(=O)(=O)c3cccc(F)c3)CC2)O[C@@H]2O[C@@]3(C)CC[C@H]4[C@H](C)CC[C@@H]1[C@@]24OO3	0.6
C[C@H]1[C@H](N2CCN(C(=O)c3ccc(F)cc3)CC2)O[C@@H]2O[C@@]3(C)CC[C@H]4[C@H](C)CC[C@@H]1[C@@]24OO3	0.6
C[C@H]1[C@H](N2CCN(S(=O)(=O)c3cccc(C(F)(F)F)c3)CC2)O[C@@H]2O[C@@]3(C)CC[C@H]4[C@H](C)CC[C@@H]1[C@@]24OO3	0.4

# context switch: different compound, same IC50
Quick check: IC50 of `CCCCS(=O)(=O)N1CCN([C@@H]2O[C@@H]3O[C@@]4(C)CC[C@H]5[C@H](C)CC[C@@H]([C@H]2C)[C@@]35OO4)CC1` ?
0.5

====

- System: HepG2 cells
- protocol_summary: HepG2 cytotoxicity bioluminescence assay (CellTiterGlo, ATP)
- Assay type: cell-based, human
- conditions_used: two biological replicates listed in one cell; listed as 28 (WHN-14)
property: pIC50
Answers are plain numbers, as −log10 of the molar value.

What does the record list as pIC50 for C[C@H]1[C@H](N2CCN(C(=O)c3ccc(F)cc3)CC2)O[C@@H]2O[C@@]3(C)CC[C@H]4[C@H](C)CC[C@@H]1[C@@]24OO3 [Compound 28] ?
5.19

====

Give pIC50 for every item shown.
- Tested on: P. falciparum NF54
- protocol_summary: Proliferative (SYBR Green I) assay, asexual parasites, 96 h
- Format: cell-based
- conditions_used: Plasmodium falciparum, ±SEM
One number for each entry, as −log10 of the molar value.

The examples below pair each entry with its known result.
C[C@H]1[C@H](N2CCN(C(=O)c3ccc(C(F)(F)F)cc3)CC2)O[C@@H]2O[C@@]3(C)CC[C@H]4[C@H](C)CC[C@@H]1[C@@]24OO3	8.47
C[C@H]1[C@H](N2CCN(S(=O)(=O)c3cccc(F)c3)CC2)O[C@@H]2O[C@@]3(C)CC[C@H]4[C@H](C)CC[C@@H]1[C@@]24OO3	8.51
C[C@H]1[C@H](N2CCN(S(=O)(=O)c3cccc(C(F)(F)F)c3)CC2)O[C@@H]2O[C@@]3(C)CC[C@H]4[C@H](C)CC[C@@H]1[C@@]24OO3	8.47
C[C@H]1[C@H](N2CCN(S(=O)(=O)c3ccc(F)cc3)CC2)O[C@@H]2O[C@@]3(C)CC[C@H]4[C@H](C)CC[C@@H]1[C@@]24OO3	8.47
C[C@H]1[C@H](NS(=O)(=O)N2CCN(c3ccccn3)CC2)O[C@@H]2O[C@@]3(C)CC[C@H]4[C@H](C)CC[C@@H]1[C@@]24OO3	8.37
C[C@H]1[C@H](N2CCN(C(=O)Nc3ccc(C(F)(F)F)cc3)CC2)O[C@@H]2O[C@@]3(C)CC[C@H]4[C@H](C)CC[C@@H]1[C@@]24OO3	8.81
CCCCS(=O)(=O)N1CCN([C@@H]2O[C@@H]3O[C@@]4(C)CC[C@H]5[C@H](C)CC[C@@H]([C@H]2C)[C@@]35OO4)CC1	8.57
C[C@H]1[C@H](N2CCN(C(=O)c3ccc(F)cc3)CC2)O[C@@H]2O[C@@]3(C)CC[C@H]4[C@H](C)CC[C@@H]1[C@@]24OO3	8.55
C[C@H]1[C@H](N2CCN(S(=O)(=O)c3ccc(C(F)(F)F)cc3)CC2)O[C@@H]2O[C@@]3(C)CC[C@H]4[C@H](C)CC[C@@H]1[C@@]24OO3	7.86
C[C@H]1[C@H](N2CCN(C(=O)Nc3ccc(F)cc3)CC2)O[C@@H]2O[C@@]3(C)CC[C@H]4[C@H](C)CC[C@@H]1[C@@]24OO3	8.89

For each listed entry, give its pIC50.
1. C[C@H]1[C@H](NS(=O)(=O)N2CCN(c3ccc(C(F)(F)F)cn3)CC2)O[C@@H]2O[C@@]3(C)CC[C@H]4[C@H](C)CC[C@@H]1[C@@]24OO3
2. C[C@H]1[C@H](N2CCN(C(=O)Nc3ccc(C(C)(C)C)cc3)CC2)O[C@@H]2O[C@@]3(C)CC[C@H]4[C@H](C)CC[C@@H]1[C@@]24OO3
3. CC(=O)Nc1ccc(S(=O)(=O)N2CCN([C@@H]3O[C@@H]4O[C@@]5(C)CC[C@H]6[C@H](C)CC[C@@H]([C@H]3C)[C@@]46OO5)CC2)cc1

1: 8.48; 2: 8.73; 3: 8.57
